Taken from ChEMBL document CHEMBL1201862.

Record set of log10(GI50) for target or system HCT-15.
MEASURE_NAME: log10(GI50) (log10 of the value in µM)

1) CCCc1cc(=O)oc2c(C=O)c(O)cc(O)c12 :: 1.42
2) CCN(CC)CCCNC(=O)c1ccccc1Nc1c(Cl)cccc1Cl :: 1.10
3) CCCCCCCCSC(SCCCCCCCC)=C1C(=O)N(c2ccccc2)N=C1C :: 1.58
4) COC(=O)CSSCc1ccc([N+](=O)[O-])cc1 :: 1.22
5) O=C1C=CC(=O)c2c1ccc1c3ccccc3n(-c3cccc([N+](=O)[O-])c3)c21 :: 0.41
6) Sc1nnc(COc2ccc(Cl)cc2)o1 :: 1.49
7) COc1cccc(NC(=O)C(=O)C(C(=O)c2ccccc2F)C2OC(=O)c3ccccc32)c1 (stereo not given) :: 1.46

---

system: OVCAR-8; experiment: NCI tumour cell line growth inhibition, 48 h
The source made the active and inactive calls. Cut-off read from the data, not from the text of the source: active = GI50 up to about 1.1 µM and inactive = higher.
Listed compounds paired with reported GI50
MEASURE_NAME: GI50

1. Cc1sc2nc3n(c(=O)c2c1C)N=C(c1ccccc1)CS3 :: > 100 µM (inactive)
2. CCC(=O)OC1=C(c2ccccc2)Sc2ccc(Cl)cc2-n2cccc21 :: > 10 µM (inactive)
3. CC(C)OC(=O)[C@@H](O)[C@H](CO)C1=CC([Si](C)(C)c2ccccc2)=CON1 :: > 100 µM (inactive)
4. c1ccc(C2=NCCN2)c(C2=NCCN2)c1 :: > 100 µM (inactive)
5. Cc1nc2n(c1/C=C1/C(=O)Nc3ccccc31)CCS2 :: 79.6 µM (inactive)
6. CCOC(=O)CCn1[nH]c(=O)c(Cl)c(Cl)c1=O :: > 100 µM (inactive)
7. CN(C)CCN(C)C(=O)c1cccc2cccc(C(=O)O)c12 :: > 100 µM (inactive)
8. C=Cc1nc2nnc(CCCCCCCCc3nnc4nc(C=C)[nH]n34)n2[nH]1 :: 83.8 µM (inactive)
9. O=C(CNc1ccc(Cl)cc1Cl)Nn1c(-c2ccccc2)nc2ccccc2c1=O :: 35 µM (inactive)
10. CN(C)CCNC(=O)c1cccc2c1nc(-c1ccccc1)c1ccccc12 :: 4.43 µM (inactive)
11. CCC1=C(CC2NCCc3cc(OC)c(OC)cc32)CC2c3ccccc3CCN2C1 (stereo not given) :: 37.5 µM (inactive)
12. O=C1CSC(c2ccccc2)N1c1ccc(-n2c(-c3ccccc3)nc3ccccc3c2=O)cc1 (stereo not given) :: 61.7 µM (inactive)
13. NC1(CCNC(=O)c2ccccc2)CCN(C(=O)c2ccccc2)CC1 :: > 100 µM (inactive)
14. Cc1nc(Nc2ccccc2Cl)sc1C(=O)CC(=O)C(N)=O :: 54.7 µM (inactive)
15. CC(C)OC(=O)/C=C/C(=O)O/C=C/[N+](=O)[O-] :: 15.7 µM (inactive)

---

Listed molecules paired with reported GI50
tested on: SK-OV-3; experiment: NCI tumour cell line growth inhibition, 48 h
Activity calls are given as the source filed them. Cut-off read from the data, not from the text of the source: active = GI50 up to about 1.1 µM and inactive = higher.
MEASURE_NAME: GI50

1. CCn1c2ccccc2c2nnc(NCCCO)nc21 :: > 100 µM (inactive)
2. COc1cc(/C=N/NC(=O)c2ccc(NC(C)=O)cc2OC)ccc1O :: > 100 µM (inactive)
3. COc1cc(CN(C)N2C(=O)c3cccc4cc([N+](=O)[O-])cc(c34)C2=O)cc(OC)c1OC :: 44.1 µM (inactive)
4. CCCCC1(O)CC2CC1C(C)C2(C)C (centres undefined) :: > 100 µM (inactive)

---

test system: SK-MEL-2; assay: NCI tumour cell line growth inhibition, 48 h
The source made the active and inactive calls. No stated cut-off is given here; in the data, active = GI50 up to about 1.1 µM and inactive = higher.
Classes used: T (active), F (inactive)

1. C=C([C@@]1(O)C[C@H]2[C@H](CCC2(OC)OC)[C@@H]2c3ccccc3O[C@@H]21)[Si](C)(C)C :: F
2. CS(=O)(=O)c1ccc2nc(-c3ccc(O)cc3)sc2c1 :: F
3. CC(C)(C)c1cc(C=C(C#N)C#N)cc(C(C)(C)C)c1O :: T
4. CCC1=C(CC2NCCc3cc(OC)c(OC)cc32)CC2c3ccccc3CCN2C1 (stereo not drawn) :: F
5. CC(C)(CN1CCCCC1)C(=O)/C=C/c1ccccc1 :: F
6. CCOC(=O)NC1CN2CCC1CC2 (stereo not drawn) :: F
7. C=CCOC(=O)Cn1cc(C)c(=O)[nH]c1=O :: F
8. CC(=O)O[C@H]1CCN2C(=O)C=CC(OCc3ccccc3)C12 (stereo partly drawn) :: F
9. Oc1ccc(O)c(-n2cccn2)c1 :: F
10. Cn1c(=O)nc2n(-c3ccc(O)cc3)c3ccccc3nc-2c1=O :: F
11. O=C(O)c1ccccc1-c1ccccc1C(=O)Nc1ccc2c(c1)nc(O)c1ccccc12 :: F
12. O=c1cnn(C/C=C/CP(=O)(O)O)c(=O)[nH]1 :: F
13. COc1ccc2c(-c3ccc(OCCN(C)C)cc3)c(Oc3ccccc3)c(=O)oc2c1 :: F

---

system: Hs-578T; assay: NCI tumour cell line growth inhibition, 48 h
Activity calls are given as the source filed them. Rule as the data show it: active = GI50 up to about 1.1 µM and inactive = higher.
Classes used: true (1) for active, false (0) for inactive

1) CN(C)/N=N/c1ccc2[nH]c(=O)[nH]c2c1 :: false (0)
2) COC1CC(OC2C(C)OC(OC3C(C)OC(OC4C(C)OC(O[C@H]5CC[C@@]6(C)C(=CC[C@]7(O)[C@@H]6C[C@@H](O)[C@@]6(C)[C@]7(O)CC[C@@]6(O)C(C)=O)C5)CC4OC)CC3OC)CC2OC)OC(C)C1O (stereo not given in full) :: false (0)
3) CCC1(C)NC(c2cnccn2)=NN1c1ccc(Cl)cc1 (stereo not given) :: false (0)
4) COc1cc(N(CCC#N)CCC#N)ccc1/C=N\NC(=O)c1ccc(C)cc1 :: false (0)
5) C[n+]1[n-]o/c(=N\N=O)c1-c1cc(-c2/c(=N/N=O)o[n-][n+]2C)cc(-c2/c(=N\N=O)o[n-][n+]2C)c1 :: false (0)
6) CCOC(=O)CCN1C(=O)c2ccc(NC(=O)C(=O)O)cc2S1(=O)=O :: false (0)
7) CNC(=S)/C(C#N)=C(\N)N1CCCC1 :: false (0)
8) O=C1CSC(c2ccccc2)N1c1ccc(-n2c(-c3ccccc3)nc3ccccc3c2=O)cc1 (stereo not given) :: false (0)
9) CCC#CCCCCCCCCC(F)C(=O)O (stereo not given) :: false (0)
10) Cc1sc2nc3n(c(=O)c2c1C)N=C(c1ccccc1)CS3 :: false (0)
11) CCN1CCN(c2nc3ccccc3c3c2CCOc2ccccc2-3)CC1 :: false (0)
12) CC(=O)NC1C(O)C(O)C(CO)OC1n1ncc(=O)[nH]c1=O (stereo not given) :: false (0)
13) O=C(CNc1ccc(Cl)cc1Cl)Nn1c(-c2ccccc2)nc2ccccc2c1=O :: false (0)
14) COc1ccc(C(=C(I)c2ccccc2)c2ccc(OC)cc2)cc1 :: false (0)
15) O=c1oc2c([N+](=O)[O-])cc([N+](=O)[O-])cc2c2ccccc12 :: false (0)
16) COc1cc(C2=N/C(=C/c3cccs3)C(=O)O2)cc(OC)c1OC :: false (0)
17) CC(C)=CCN1c2ccccc2NC(=O)CC1C (stereo not given) :: false (0)
18) O=S(=O)(c1ccc2ccccc2c1)N1CCN(S(=O)(=O)c2ccc3ccccc3c2)CC1 :: false (0)
19) Oc1ccc2ccccc2c1C(c1ccc(Cl)cc1)c1c(O)ccc2ccccc12 :: true (1)
20) Cc1cn(C2CC(N=[N+]=[N-])C(CO)O2)c(=O)n(CCCCBr)c1=O (stereo not given) :: false (0)

---

test system: IGROV-1; test: NCI tumour cell line growth inhibition, 48 h
Activity calls are given as the source filed them. No stated cut-off is given here; in the data, active = GI50 up to about 1.1 µM and inactive = higher.
Classes used: active, inactive

1) COC(=O)c1cc(=O)n(-c2ccc3nn(C)nc3c2)cc1C(=O)OC :: inactive
2) COC(=O)/C=C\C1C(C(=O)OC)C2(C(=O)OC)CCC1(C(=O)OC)N2 (configuration not stated) :: inactive
3) COc1cc(CN(C)N2C(=O)c3cccc4cc([N+](=O)[O-])cc(c34)C2=O)cc(OC)c1OC :: inactive
4) CSC(SC)=C(C#N)C(=O)Nc1cccc(Cl)c1 :: inactive
5) CC(=O)Nc1ccccc1[S+]([O-])c1ccccc1 (configuration not stated) :: inactive
6) COc1ccc2c(-c3ccc(OCCN(C)C)cc3)c(Oc3ccccc3)c(=O)oc2c1 :: inactive
7) O=C1c2ccccc2C(=O)N1C1(C(=O)NC2(C(=O)O)CCCC2)CCCC1 :: inactive
8) N#CC(/C(=N/NC(=O)C(=O)NN)C(=O)Nc1nc([N+](=O)[O-])cs1)c1ccc(Cl)cc1 (configuration not stated) :: inactive
9) COC(=O)C1CCN(C(=O)OC(C)(C)C)CC1 :: inactive
10) CCOC(=O)CC1C(C(=O)OCC)=Cn2c([nH]c3cccc4cccc2c43)=C1C(=O)OCC (configuration not stated) :: inactive
11) CN(C)CCNC(=O)c1cccc2c1nc(-c1ccccc1)c1ccccc12 :: inactive
12) COc1ccc(C(=O)c2cc(OC)c(OC)c(OC)c2)cc1 :: active
13) O=C(Nc1ccc(I)cc1C(=O)NCCO)c1cccs1 :: inactive
14) O=S(=O)(CC(O)C(Cl)(Cl)Cl)NNc1ccccc1 (configuration not stated) :: inactive
15) Cc1cc(-c2nc3cc(F)ccc3s2)ccc1N :: active
16) O=C(O)CC/C(=N\Nc1nsc2ccccc12)c1ccccc1 :: inactive
17) COc1cc2c(cc1OC)C(=O)N(c1ccc(O)cc1)C2=O :: inactive
18) CCCCCc1cc(CCCC)sc1-c1ccco1 :: inactive
19) Oc1ccc(Cc2cc(Cl)cc(Cl)c2O)cc1Cl :: inactive
20) COC(=O)C1SC(N(C)c2ccccc2)=NC12c1ccccc1Nc1ccccc12 (configuration not stated) :: inactive
21) C=CCOC(=O)Cn1cc(C)c(=O)[nH]c1=O :: inactive
22) CCOC(=O)NC1CN2CCC1CC2 (configuration not stated) :: inactive
23) CC(C)[Si](CC1=CCCCC12C(=O)N(COCC[Si](C)(C)C)c1ccccc12)(C(C)C)C(C)C (configuration not stated) :: inactive
24) COc1nc(Cl)nc(N[C@H](C)c2c3ccccc3cc3ccccc23)n1 :: inactive
25) CC(C)=CCC[C@](C)(O)[C@H]1CC[C@]2(C)[C@@H]1[C@H](O)C[C@@H]1[C@@]3(C)CC[C@H](O[C@@H]4O[C@H](CO)[C@@H](O)[C@H](O)[C@H]4O)C(C)(C)[C@@H]3CC[C@]12C [GINSENOSIDE RH2] :: inactive
26) Cn1c(=O)nc2n(-c3ccc(O)cc3)c3ccccc3nc-2c1=O :: inactive
27) CCOC(=O)c1c2c(n3ccccc13)C(=O)c1ccccc1C2=O :: inactive
28) O=C1C=Cc2c(I)sc(I)c21 :: inactive
29) OCCO[P+]1(OCCO)n2c3ccc2C(c2ccccc2)=C2C=CC(=N2)C(c2ccccc2)=c2ccc(n21)=C(c1ccccc1)C1=NC(=C3c2ccccc2)C=C1 :: active
30) Cn1c(N)c(-c2c3ccccc3nc3ccccc23)c(=O)n(C)c1=O :: inactive
31) CSCCC(NC(=O)C(Cc1c[nH]c2ccccc12)NC(=O)CCNC(=O)OC(C)(C)C)C(=O)NC(CC(=O)O)C(=O)NC(Cc1ccccc1)C(N)=O (configuration not stated) :: inactive
32) CC/C=C\C=C/C(=O)N/C=C/CCC :: inactive
33) COC(=O)CCC1(C)C2CCC1(C)/C(=N/O)C2 (configuration not stated) :: inactive
34) Clc1cccc(Cl)c1C1SCc2nc3ncccc3n21 (configuration not stated) :: inactive
35) O=C(C#Cc1ccccc1)N1CCCCC1 :: inactive
36) COc1ccccc1NC(=O)CC(=O)NN :: inactive
37) N#CC1(Cc2ccccc2Cl)c2ccccc2C=CN1C(=O)c1ccccc1 (configuration not stated) :: inactive
